Origin of measurements: patent US20250064941A1

- SUBJECT_OF_TEST: cynomolgus Siglec-2/CD22 (Macaca fascicularis, UniProt A0A2K5WCZ6)
- Sequence (A0A2K5WCZ6 entry or part of it): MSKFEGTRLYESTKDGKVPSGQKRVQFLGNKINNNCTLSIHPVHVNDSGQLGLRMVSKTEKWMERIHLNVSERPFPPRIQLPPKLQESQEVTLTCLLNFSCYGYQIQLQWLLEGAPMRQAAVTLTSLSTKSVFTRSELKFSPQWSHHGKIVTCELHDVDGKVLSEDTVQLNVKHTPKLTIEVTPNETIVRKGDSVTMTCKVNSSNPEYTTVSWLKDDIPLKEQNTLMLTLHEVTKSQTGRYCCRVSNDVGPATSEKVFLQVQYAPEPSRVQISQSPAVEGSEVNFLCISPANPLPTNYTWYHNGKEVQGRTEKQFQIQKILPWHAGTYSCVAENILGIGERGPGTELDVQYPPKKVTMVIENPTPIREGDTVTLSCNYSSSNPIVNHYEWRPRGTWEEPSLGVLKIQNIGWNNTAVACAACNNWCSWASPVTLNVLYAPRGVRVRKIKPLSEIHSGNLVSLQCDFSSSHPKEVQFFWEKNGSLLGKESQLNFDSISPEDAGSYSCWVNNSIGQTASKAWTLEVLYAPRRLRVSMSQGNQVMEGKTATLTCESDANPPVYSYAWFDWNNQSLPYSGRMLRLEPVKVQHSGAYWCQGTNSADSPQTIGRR
- PROTOCOL_NOTES: biochemical
- Format: binding
- EXPERIMENTAL_CONTEXT: SPR, steady-state analysis; read-out: Affinity cyno CD22
ENDPOINT_NAME: Kd

API: value(readout= Kd, system= cynomolgus Siglec-2/CD22 (Macaca fascicularis, UniProt A0A2K5WCZ6), query= C#CCCOc1ccc(CO[C@]2(C(=O)O)C[C@H](O)[C@@H](NC(=O)CO)[C@H]([C@H](O)[C@H](O)CNC(=O)Cc3ccc4cn[nH]c4c3)O2)cc1 )
1000 to 10000 nM

API: value(readout= Kd, system= cynomolgus Siglec-2/CD22 (Macaca fascicularis, UniProt A0A2K5WCZ6), query= C#CCOCCCCCCC(O)[C@]1(C(=O)O)C[C@H](O)[C@@H](NC(=O)CO)[C@H]([C@H](O)[C@H](O)CNC(=O)Cc2ccc(Cl)cc2)O1 (stereo partly drawn) )
< 1000 nM

API: value(readout= Kd, system= cynomolgus Siglec-2/CD22 (Macaca fascicularis, UniProt A0A2K5WCZ6), query= C#CCCOc1ccc(CO[C@]2(C(=O)O)C[C@H](O)[C@@H](NC(=O)CO)[C@H]([C@H](O)[C@H](O)CNC(=O)C(F)(F)c3ccccc3)O2)cc1 )
1000 to 10000 nM

API: value(readout= Kd, system= cynomolgus Siglec-2/CD22 (Macaca fascicularis, UniProt A0A2K5WCZ6), query= C#CCOCCOCCO[C@]1(C(=O)O)C[C@H](O)[C@@H](NC(=O)CO)[C@H]([C@H](O)[C@H](O)CNC(=O)Cc2ccc(F)c(C(F)(F)F)c2)O1 )
< 1000 nM

API: value(readout= Kd, system= cynomolgus Siglec-2/CD22 (Macaca fascicularis, UniProt A0A2K5WCZ6), query= C#CCOP(=O)(O)OCCCCCCO[C@]1(C(=O)O)C[C@H](O)[C@@H](NC(=O)CO)[C@H]([C@H](O)[C@H](O)CNC(=O)Cc2ccc(Cl)cc2)O1 )
< 1000 nM

API: value(readout= Kd, system= cynomolgus Siglec-2/CD22 (Macaca fascicularis, UniProt A0A2K5WCZ6), query= C#CCOCCOCCO[C@]1(C(=O)O)C[C@H](O)[C@@H](NC(=O)CO)[C@H]([C@H](O)[C@H](O)CNC(=O)Cc2ccc(-c3cccc(C#N)c3)cc2)O1 )
1000 to 10000 nM

* * *

- SUBJECT_OF_TEST: human Siglec-2/CD22 protein (Homo sapiens)
- Sequence (P20273 20-847): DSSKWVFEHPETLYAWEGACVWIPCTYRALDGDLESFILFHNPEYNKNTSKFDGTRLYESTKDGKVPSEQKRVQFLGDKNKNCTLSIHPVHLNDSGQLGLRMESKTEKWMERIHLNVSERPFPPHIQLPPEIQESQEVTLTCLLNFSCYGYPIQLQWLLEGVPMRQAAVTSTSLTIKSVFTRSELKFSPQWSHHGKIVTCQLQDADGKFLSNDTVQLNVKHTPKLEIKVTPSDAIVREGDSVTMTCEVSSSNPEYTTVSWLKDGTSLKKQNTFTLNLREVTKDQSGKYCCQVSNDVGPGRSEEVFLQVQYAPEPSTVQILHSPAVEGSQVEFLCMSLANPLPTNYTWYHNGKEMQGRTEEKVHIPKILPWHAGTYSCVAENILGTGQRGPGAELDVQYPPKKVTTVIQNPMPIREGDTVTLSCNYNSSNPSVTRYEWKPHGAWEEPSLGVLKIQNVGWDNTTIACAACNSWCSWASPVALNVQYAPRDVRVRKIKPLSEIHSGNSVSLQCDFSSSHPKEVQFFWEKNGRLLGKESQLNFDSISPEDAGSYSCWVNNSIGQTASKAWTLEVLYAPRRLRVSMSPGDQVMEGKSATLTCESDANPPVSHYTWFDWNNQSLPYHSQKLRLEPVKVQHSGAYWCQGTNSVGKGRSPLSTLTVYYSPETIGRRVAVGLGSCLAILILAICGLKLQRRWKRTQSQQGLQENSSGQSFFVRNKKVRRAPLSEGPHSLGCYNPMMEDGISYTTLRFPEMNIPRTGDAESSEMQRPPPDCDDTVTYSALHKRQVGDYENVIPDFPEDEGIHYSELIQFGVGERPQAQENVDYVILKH
- PROTOCOL_NOTES: SPR binding affinity to human CD22
- EXPERIMENTAL_CONTEXT: steady-state analysis
pKd: −log10 of the molar value.
ENDPOINT_NAME: pKd

Examples from the recorded data:
C#CCOCCCCCCO[C@]1(C(=O)O)C[C@H](O)[C@@H](NC(=S)NC)[C@H]([C@H](O)[C@H](O)CNC(=O)Cc2ccc(Cl)cc2)O1 | > 6.00
C#CCOCCCCCCO[C@]1(C(=O)O)C[C@H](O)[C@@H](NC(=O)C(N)=O)[C@H]([C@H](O)[C@H](O)CNC(=O)Cc2ccc(Cl)cc2)O1 | > 6.00
O=C(O)CCCO[C@]1(C(=O)O)C[C@H](O)[C@@H](NC(=O)CO)[C@H]([C@H](O)[C@H](O)CNC(=O)Cc2ccc(Cl)cc2)O1 | 5.00 to 6.00
C#Cc1ccc(CO[C@]2(C(=O)O)C[C@H](O)[C@@H](NC(=O)CO)[C@H]([C@H](O)[C@H](O)CNC(=O)Cc3cccc(O)c3)O2)cc1 | > 6.00

Give its pKd value. Item: C#CCCOc1ccc(CO[C@]2(C(=O)O)C[C@H](O)[C@@H](NC(=O)CO)[C@H]([C@H](O)[C@H](O)CNC(=O)C(C)(O)c3ccccc3)O2)cc1 (stereo partly drawn)
5.00 to 6.00

Give its pKd value. Item: O=C(Cc1ccc(Cl)cc1)NC[C@@H](O)[C@@H](O)[C@@H]1O[C@@](SCc2ccc(C(=O)O)cc2)(C(=O)O)C[C@H](O)[C@H]1NC(=O)CO
> 6.00

* * *

- SUBJECT_OF_TEST: mouse Siglec-2-Fc-Avi (CD22) (Mus musculus)
- Construct: made in house
- PROTOCOL_NOTES: SPR binding affinity to mouse CD22
- EXPERIMENTAL_CONTEXT: steady-state analysis
- Procedure: Prior to immobilization, CD22 proteins were treated with SialoExo (Genovis, Cat #G1-SM1-020) for 4 hours at 37° C. to remove native sialic acid residues. […] Binding experiments of Siglec-ligand conjugated proteins or Siglec ligand compounds were performed on the surfaces prepared above in 10 mM HEPES, 150 mM NaCl, 0.05% Tween-20, pH 7.5, 1% DMSO as the running buffer. […] Data was analyzed using steady-state analysis in Biacore Insight Evaluation Software, version 3.0 for Siglec ligand compounds.
The entries below come with measured Kd values attached.

Examples from the recorded data:
C#CCOc1ccc(CO[C@]2(C(=O)O)C[C@H](O)[C@@H](NC(=O)CO)[C@H]([C@H](O)[C@H](O)CNC(=O)Cc3cccc(F)c3)O2)cc1 | 1 to 10 µM
C#CCOCCOCCO[C@]1(C(=O)O)C[C@H](O)[C@@H](NC(=O)CO)[C@H]([C@@H](F)[C@H](O)CNC(=O)Cc2ccc(-c3ccccc3)cc2)O1 | > 10 µM
C#CCCOc1ccc(CO[C@]2(C(=O)O)C[C@H](O)[C@@H](NC(=O)CO)[C@H]([C@H](O)[C@H](O)CN)O2)cc1 | > 10 µM
O=C(Cc1ccc(Cl)cc1)NC[C@@H](O)[C@@H](O)[C@@H]1O[C@@](OCCCCCCNC(=O)c2ccccc2)(C(=O)O)C[C@H](O)[C@H]1NC(=O)CO | < 1 µM

Moving on to another compound below.
Give its Kd value. Item: CC(=O)NCCOCCOCCOCCOCCC(=O)NCCOCCOCCO[C@]1(C(=O)O)C[C@H](O)[C@@H](NC(=O)CO)[C@H]([C@H](O)[C@H](O)CNC(=O)Cc2ccc(-c3ccccc3)cc2)O1
1 to 10 µM

* * *

- SUBJECT_OF_TEST: mouse Siglec-2-Fc-Avi (CD22) (Mus musculus, UniProt P35329)
- Sequence (P35329 22-708 limits assumed): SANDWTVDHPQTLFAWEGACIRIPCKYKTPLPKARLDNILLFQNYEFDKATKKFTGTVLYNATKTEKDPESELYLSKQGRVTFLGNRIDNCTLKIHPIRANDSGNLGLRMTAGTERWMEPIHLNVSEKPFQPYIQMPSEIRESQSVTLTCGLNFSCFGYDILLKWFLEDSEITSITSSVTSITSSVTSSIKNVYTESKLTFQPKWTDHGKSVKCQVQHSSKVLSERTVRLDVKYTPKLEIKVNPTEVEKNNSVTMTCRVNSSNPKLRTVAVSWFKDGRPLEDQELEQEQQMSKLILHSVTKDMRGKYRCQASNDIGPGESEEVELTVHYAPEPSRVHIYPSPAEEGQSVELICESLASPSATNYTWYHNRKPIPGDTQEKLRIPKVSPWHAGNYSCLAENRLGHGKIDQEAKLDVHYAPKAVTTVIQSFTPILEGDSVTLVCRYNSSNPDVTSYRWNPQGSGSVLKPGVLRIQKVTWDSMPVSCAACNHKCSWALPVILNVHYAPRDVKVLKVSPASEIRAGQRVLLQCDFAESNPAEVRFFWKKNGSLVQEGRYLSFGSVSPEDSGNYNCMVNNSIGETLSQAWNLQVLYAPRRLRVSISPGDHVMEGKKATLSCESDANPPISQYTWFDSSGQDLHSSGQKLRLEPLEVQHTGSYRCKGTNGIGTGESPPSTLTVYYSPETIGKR
ENDPOINT_NAME: Kd

CC(=O)NCCOCCOCCOCCOCCNc1c(NCCCCCCO[C@]2(C(=O)O)C[C@H](O)[C@@H](NC(=O)CO)[C@H]([C@H](O)[C@H](O)CNC(=O)Cc3ccc(C(F)F)cc3)O2)c(=O)c1=O [Cpd. 258] | < 1000 nM
C#CCOCCCCCCO[C@]1(C(=O)O)C[C@H](O)[C@@H](NC(=O)NCC2CC2)[C@H]([C@H](O)[C@H](O)CNC(=O)Cc2ccc(Cl)cc2)O1 [Compound 94] | 1000 to 10000 nM
C#CCOc1ccc(CO[C@]2(C(=O)O)C[C@H](O)[C@@H](NC(=O)CO)[C@H]([C@H](O)[C@H](O)CNC(=O)Cc3ccc(-c4ccc(F)cc4)cc3)O2)cc1 [Compound 48] | 1000 to 10000 nM
C#CCOc1ccc(CO[C@]2(C(=O)O)C[C@H](O)[C@@H](NC(=O)CO)[C@H]([C@H](O)[C@H](O)CNC(=O)Cc3ccc(-c4ccc(O)cc4)cc3C)O2)cc1 [Compound 56] | < 1000 nM

API: value(readout= Kd, system= mouse Siglec-2-Fc-Avi (CD22) (Mus musculus, UniProt P35329), query= C#CCOCCOCCO[C@]1(C(=O)O)C[C@H](O)[C@@H](NC(=O)CO)[C@H]([C@H](O)[C@H](O)CNC(=O)Cc2ccc(OC)cc2)O1 [Compound 174] )
1000 to 10000 nM

* * *

- SUBJECT_OF_TEST: human Siglec-2/CD22 protein (Homo sapiens)
- PROTOCOL_NOTES: SPR binding affinity to human CD22
- EXPERIMENTAL_CONTEXT: steady-state analysis
The entries below come with measured Kd values attached.

Give its Kd value. Item: CC(=O)NCCOCCOCCOCCOCCC(=O)NCCOCCOCCO[C@]1(C(=O)O)C[C@H](O)[C@@H](NC(=O)CO)[C@H]([C@H](O)[C@H](O)CNC(=O)Cc2ccc(Cl)cc2)O1
1000 to 10000 nM

Give its Kd value. Item: C#CCOCCCCCCO[C@]1(C(=O)O)C[C@H](O)[C@@H](NC(=O)COc2ccccc2)[C@H]([C@H](O)[C@H](O)CNC(=O)Cc2ccc(Cl)cc2)O1
1000 to 10000 nM

* * *

- SUBJECT_OF_TEST: cynomolgus Siglec-2/CD22 (Macaca fascicularis, UniProt A0A2K5WCZ6)
- PROTOCOL_NOTES: biochemical
- EXPERIMENTAL_CONTEXT: SPR, steady-state analysis; read-out: Affinity cyno CD22
The entries below come with measured Kd values attached.

Examples from the recorded data:
C#CCOCCOCCO[C@]1(C(=O)O)C[C@H](O)[C@@H](NC(=O)NCC(F)(F)F)[C@H]([C@H](O)[C@H](O)CNC(=O)Cc2ccc(-c3ccc(O)cc3)cc2)O1 [Compound 199] | > 10000 nM
C#CCOCCCCCCO[C@]1(C(=O)O)C[C@H](O)[C@@H](NC(=O)CO)[C@H]([C@H](O)[C@H](O)CNC(=O)Cc2ccc3[nH]ccc3c2)O1 [Compound 6] | < 1000 nM
C#CCOCCOCCO[C@]1(C(=O)O)C[C@H](O)[C@@H](NC(=O)CC#N)[C@H]([C@H](O)[C@H](O)CNC(=O)Cc2ccc(-c3ccc(O)cc3)cc2)O1 [Compound 58] | 1000 to 10000 nM
C#CCOCCNC(=O)CCCCCCO[C@]1(C(=O)O)C[C@H](O)[C@@H](NC(=O)CO)[C@H]([C@H](O)[C@H](O)CNC(=O)Cc2ccc(C(F)F)cc2)O1 [Compound 213] | < 1000 nM

Moving on to another molecule below.
Give its Kd value. Item: C#CCOCCOCCO[C@]1(C(=O)O)C[C@H](O)[C@@H](NC(=O)CO)[C@H]([C@H](O)[C@H](O)CNC(=O)Cc2ccc(Cl)cc2)O1 [Compound 126]
1000 to 10000 nM
